The following binders are shown together with reported Inhibition of human TNF-induced L929 cell cytotoxicity EC50 values.
STUDY SYSTEM: soluble human TNF-alpha (human, UniProt P01375 77-233)
Sequence (P01375 77-233 limits assumed): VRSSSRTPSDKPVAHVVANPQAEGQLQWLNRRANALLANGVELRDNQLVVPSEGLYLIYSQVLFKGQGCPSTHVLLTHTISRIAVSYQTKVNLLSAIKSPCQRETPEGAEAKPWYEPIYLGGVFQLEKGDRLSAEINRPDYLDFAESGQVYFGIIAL
ASSAY REMARKS: cell-based or functional assay
Write the answer as a number in nM, unit excluded.

Examples from the recorded data:
- BINDER: "Q62F2 (VHH, not shown: small tags and cut ends, Family 1; purified from E. coli) VHH: QVQLVESGGGLVQPGGSLRLSCAASGFDFNSHWMYWVRQAPGKGLEWVSEINTNGLITNYVDSVKGRFTVSRDNAANTLYLEMTSLKPEDTALYYCARNQKGLNKGQGTQVTVSS"
  READOUT UNITS: "nM"
  VALUE: 1
- BINDER: "Q62E10 (VHH, not shown: small tags and cut ends, Family 2; purified from E. coli) VHH: QVQLVESGGGLVQPGGSLRLSCTTSGLDFGIHWMYWFRQAPGKELEWVAEINTNALITKYADSVKGRFTISRDNAKNTLFLQMNDLKSEDTAVYYCSNTQNGAAKGQGVQVTVSS"
  READOUT UNITS: "nM"
  VALUE: 0.2
- BINDER: "Q62F11 (VHH, not shown: small tags and cut ends, Neither Family 1 nor Family 2; purified from E. coli) VHH: QVQLVESGGGLVQPGGSLRLSCAASGFSFSDYVMGWFRQAPGKEREFVGFIRWDGLVTRYADAVKGRFTISRDNARNTLSLQTIGLLAEDTAVYYCAASGGGSGPVNAGSYEYWGQGTQVTVSS"
  READOUT UNITS: "nM"
  VALUE: 6

Lab note: next binder to report on.
Need Inhibition of human TNF-induced L929 cell cytotoxicity EC50, item Q62F10 (VHH, not shown: small tags and cut ends, Family 2; purified from E. coli) VHH: EVQLVESGGGLVQPGGSLRLSCVASGFDFNIHWMYWVRQAPGKELEWVAEINTNGLITVYPDSVKGRFTISRDNAKNTLFLQMNNLKFEDTAVYYCTNTQNGKTKGQGTQVTVSS 2
